assay: Human HepG2 cell viability assay in 384 well format; assay type: toxicity, cell-based; design: dose 125 nL, time 70.5 hour; concentration not given beside the values; conditions: HepG2 cells, read-out: Inhibition

# COMPOUND, cytotoxicity at 70.5 h (%)
measured = [
    ("CN(C)CCn1c(=O)oc2ccc(NC(=O)C3CCCO3)cc21 (stereo not given)", 1.22),
    ("O=C(N1CCOCC1)N1C[C@@H]2OCCN(C(=O)c3ccco3)[C@@H]2C1", -1.55),
    ("CCN(Cc1ccncc1)CC1(C)Cc2c(N)nc(N)nc2O1 (stereo not given)", -2.81),
    ("COc1ccc(N2CCN(CC(O)c3cc(C)ccc3C)CC2)cc1 (stereo not given)", -14.7),
    ("CCc1cc(N[C@H](C(N)=O)C(C)C)n2nc(C)c(C)c2n1", -6.29),
]

Data provenance: ChEMBL document CHEMBL3507680
